Provenance of the data: the supplement of paper PMC9112550

Test system: Escherichia coli TOP10;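 also: peptides expressed intracellularly from a pBAD plasmid library in pooled LB shake-flask culture, induced with 0.3% L-arabinose, DNA abundance read by NGS, three biological replicates, DESeq2 with apeglm shrinkage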
test.details: shrunken log2 fold change of peptide-encoding DNA abundance (4.5 h post-induction vs induction); higher = less antimicrobial activity (less host growth inhibition)
test.settings: time post-induction: 4.5 h; library: site-saturation at positions 5, 18, 19, 20
Listed sequences paired with reported shrunken log2 fold change
parameter: shrunken log2 fold change

RRIRCRPPRLPRPRPRPRPKPRP = 0.901
RRIRWRPPRLPRPRPRPYIGPRP = -0.127
RRIRKRPPRLPRPRPRPQPGPRP = 0.406
RRIRVRPPRLPRPRPRPACDPRP = 0.284
RRIRMRPPRLPRPRPRPLKIPRP = -0.0474
RRIRYRPPRLPRPRPRPNSIPRP = -0.737
RRIRLRPPRLPRPRPRPRGCPRP = 0.246
RRIRARPPRLPRPRPRPRNMPRP = 0.263
RRIRGRPPRLPRPRPRPPPWPRP = 1.41
RRIRERPPRLPRPRPRPLFKPRP = -0.543
RRIRFRPPRLPRPRPRPINEPRP = -0.11
RRIRDRPPRLPRPRPRPIKRPRP = 0.000716
RRIRMRPPRLPRPRPRPAIRPRP = -0.0476
RRIRCRPPRLPRPRPRPKPHPRP = 0.398
RRIRDRPPRLPRPRPRPEFKPRP = -0.0319
RRIRERPPRLPRPRPRPHGCPRP = -0.00136
RRIRSRPPRLPRPRPRPAMYPRP = -0.184
RRIRWRPPRLPRPRPRPVEFPRP = -0.177
RRIRDRPPRLPRPRPRPGTKPRP = -0.0282
RRIRVRPPRLPRPRPRPDFGPRP = -0.0183
RRIRRRPPRLPRPRPRPPEIPRP = -0.17
RRIRERPPRLPRPRPRPRFNPRP = -0.453
RRIRHRPPRLPRPRPRPHNMPRP = -0.364
RRIRLRPPRLPRPRPRPHTCPRP = -0.339
RRIRDRPPRLPRPRPRPFAPPRP = 0.318
RRIRRRPPRLPRPRPRPTHNPRP = 0.695
RRIRNRPPRLPRPRPRPVWLPRP = 0.0895
RRIRERPPRLPRPRPRPIMTPRP = -0.714
RRIRKRPPRLPRPRPRPGHSPRP = -0.0124
RRIRLRPPRLPRPRPRPMYVPRP = -0.199
RRIRDRPPRLPRPRPRPEESPRP = 0.14
RRIRGRPPRLPRPRPRPGHYPRP = 0.00558
RRIRDRPPRLPRPRPRPMCMPRP = 0.0237
RRIRARPPRLPRPRPRPQAGPRP = 0.195
RRIRTRPPRLPRPRPRPLACPRP = 0.0365
RRIRLRPPRLPRPRPRPRHQPRP = -0.254
RRIRSRPPRLPRPRPRPDIAPRP = -0.0218
RRIRMRPPRLPRPRPRPWWAPRP = -0.0423
RRIRSRPPRLPRPRPRPWLYPRP = -0.652
RRIRSRPPRLPRPRPRPINPPRP = -0.447
RRIRERPPRLPRPRPRPILWPRP = -0.161
RRIRYRPPRLPRPRPRPQPQPRP = -0.0927
RRIRDRPPRLPRPRPRPKTQPRP = -0.0316
RRIRARPPRLPRPRPRPIPHPRP = 0.0126
RRIRTRPPRLPRPRPRPAMSPRP = 0.00971
RRIRIRPPRLPRPRPRPFHWPRP = 0.0373
RRIRMRPPRLPRPRPRPNAGPRP = 0.416
RRIRQRPPRLPRPRPRPKKDPRP = -0.184
RRIRDRPPRLPRPRPRPNIEPRP = -0.00164
RRIRTRPPRLPRPRPRPYGHPRP = -0.587
RRIRERPPRLPRPRPRPAYEPRP = -0.00975
RRIRYRPPRLPRPRPRPLSPPRP = -0.352
RRIRYRPPRLPRPRPRPGGPPRP = 0.106
RRIRQRPPRLPRPRPRPRTTPRP = 0.218
RRIRKRPPRLPRPRPRPSQQPRP = 0.312
RRIRRRPPRLPRPRPRPRSSPRP = 0.0954
RRIRVRPPRLPRPRPRPFTVPRP = -0.105
RRIRMRPPRLPRPRPRPQGLPRP = 0.0389
RRIRPRPPRLPRPRPRPYVWPRP = -0.365
RRIRTRPPRLPRPRPRPEQGPRP = 0.196
RRIRKRPPRLPRPRPRPMTRPRP = 0.872
RRIRRRPPRLPRPRPRPLYTPRP = -0.132
RRIRHRPPRLPRPRPRPNHTPRP = -1.04
